Biological target: T1, ZO-1 PDZ2 R251A (human, UniProt Q07157 186-264, R251A)
T1 sequence: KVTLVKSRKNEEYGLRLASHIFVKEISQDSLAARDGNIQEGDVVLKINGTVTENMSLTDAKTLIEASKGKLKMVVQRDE
Assay: ITC
PROPERTY: Kd (µM)
Enter your answer as a number in µM; do not include the unit.

Ask: For the binder PSSRASSRASSRPRPDDLEI [Connexin 43 (Cx43) C-terminal peptide] , what Kd is on record?
Reply: 19
